Assign pIC50 to each entry below.
- Assayed target: Insulin amyloid aggregates
- Run description: Competition assay with Thioflavin T (ThT) for binding to insulin amyloid aggregates, fluorescence 96-well plate
- Details: 0.5 μM ThT, 2 μg per well fibrils, 25 mM sodium phosphate pH 6.0, room temperature
- Experimental: Burke M. J. and Rougevie M. A., Cross-β Protein Structures. I. Insulin Fibrils. […] Briefly, lyophilized insulin protein powder dissolved at 10 mg/mL in 50 mM HCl was alternately heated to 95° C. and frozen in dry ice to form amyloid aggregates. The ability of compounds of Formula I to compete with Thioflavin T (ThT) for binding to amyloid aggregates was measured using fluorescence in a 96-well fluorescence plate assay. […] Results are expressed as % maximal fluorescence (no competing compound). […]
Value format note: pIC50 is -log10 of concentration (mol/L); just state the number.

Query string: Short answer please: pIC50, Insulin amyloid aggregates, entry CN(C)c1ccc(/C=C/c2sc3c4ccccc4ccc3[n+]2C)cc1 [Example 24]
Result string: 7.39

Query string: Item CN(C)c1ccc(N=Nc2sc3ccccc3[n+]2C)cc1 [Example 54] with Insulin amyloid aggregates - pIC50?
Result string: 7.22

Query string: Find the measured pIC50: item Cc1ccc2c(c1)sc(/C=C/c1ccc(N(C)C)cc1)[n+]2C [Example 17] , target or system Insulin amyloid aggregates.
Result string: 8.22

Query string: For Insulin amyloid aggregates, provide pIC50 of C=CC[n+]1c(/C=C/c2ccc(N(C)C)cc2)sc2ccccc21 [Example 10] please.
Result string: 7.92

Query string: What measured pIC50 is associated with CN(C)c1ccc(/C=C/c2sc3cc([N+](=O)[O-])ccc3[n+]2C)cc1 [Example 21] on Insulin amyloid aggregates?
Result string: 7.92

Query string: Entry CN(C)c1ccc(/C=C/c2[s+]c3ccc4ccccc4c3n2C)cc1 [Example 8] , system Insulin amyloid aggregates: what pIC50 was measured?
Result string: 7.28

Query string: # returns recorded pIC50 (system: Insulin amyloid aggregates) for CCCCCCC[n+]1c(/C=C/c2ccc(N(C)C)c3ccccc23)sc2ccccc21 [Example 39]
Result string: 7.40

Query string: Return pIC50 measured with Insulin amyloid aggregates given this molecule: CN(C)c1ccc(/C=C/c2sc3ccccc3[n+]2Cc2ccccc2-c2ccccc2)cc1 [Example 28]
Result string: 7.10

Query string: Which measured pIC50 belongs to CN(C)c1ccc(/C=C/c2sc3ccccc3[n+]2Cc2ccc3ccccc3c2)cc1 [Example 27] , tested on Insulin amyloid aggregates?
Result string: 7.89

----------
Provide the reported pIC50 of each item.
- Assayed target: Insulin amyloid aggregates
- Run description: Competition assay with Thioflavin T (ThT) for binding to insulin amyloid aggregates, fluorescence 96-well plate
- Details: 0.5 μM ThT, 2 μg per well fibrils, 25 mM sodium phosphate pH 6.0, room temperature
Note on units: pIC50 is unitless, being -log10 of a concentration expressed in mol/L.

Query string: What does the record list as pIC50 for COc1ccc2nc(/N=N/c3ccc(N(C)C)c4ccccc34)sc2c1 ?
Result string: 6.47

Query string: What measured pIC50 goes with CC[n+]1c(/C=C/c2ccc(N(C)C)cc2)sc2ccccc21 ?
Result string: 8.22

Query string: Query: pIC50; subject: CN(C)c1ccc(/C=C/c2sc3ccccc3[n+]2CCCCCOc2ccccc2)cc1
Result string: 7.10

Query string: // returns reported pIC50 for input CCn1c(/C=C/c2ccc(N(C)C)cc2)[s+]c2ccc3ccccc3c21
Result string: 7.39
